biological target: human Aβ antigen (human); assay: cell-based or functional assay
Sequence (peptide, as listed by the source): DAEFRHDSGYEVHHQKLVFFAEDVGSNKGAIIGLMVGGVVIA
reportedProperty: relative value of LDH release (SHSY5Y cells with Aβ; hIgG = 1.00)
Answers are plain numbers.

Solved cases (4 shown):
binder="066-4.26.14H5L1 (antibody, V domains shown) VH: EVQLVESGGGLVQPGGSLRLSCVASGFTFRSYAMSWVRQAPGKGLEWVASISTTSNTYYPDSVKGRFTTSRDNSKNTVYLQMSSLRAEDTAVYYCGRGVITNQAWFAYWGQGTLVTVSS VL: DIVLTQSPATLSVSPGERVTLSCRASQSISNNLHWYQQKSGQAPRLLIKYASQSISGIPSRFSGSGSGTDFTLTISSLQSEDFAVYFCQQSNSWPLTFGGGTQVEIK" numericreadout=1.37
binder="066-4.26.14H5L3 (antibody, V domains shown) VH: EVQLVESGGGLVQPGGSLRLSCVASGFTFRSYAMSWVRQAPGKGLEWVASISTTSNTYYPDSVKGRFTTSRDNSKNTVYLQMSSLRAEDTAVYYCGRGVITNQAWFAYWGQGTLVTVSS VL: DIVLTQSPDFQSVTPKEKVTISCRASQSISNNLHWYQQKPDQSPKLLIKYASQSISGIPSRFSGSGSGTDFTLTINSLEAEDAAAYFCQQSNSWPLTFGPGTKVEIK" numericreadout=1.41
binder="066-4.26.14H2L3 (antibody, V domains shown) VH: EVQLVESGGGLVKPGGSLRLSCAASGFTFRSYAMSWVRQTPEKRLEWVASISTTSNTYYPDSVKGRFTTSRDNAKNSVYLQMSSLRAEDTAVYYCGRGVITNQAWFAYWGQGTTVTVSS VL: DIVLTQSPDFQSVTPKEKVTISCRASQSISNNLHWYQQKPDQSPKLLIKYASQSISGIPSRFSGSGSGTDFTLTINSLEAEDAAAYFCQQSNSWPLTFGPGTKVEIK" numericreadout=1.42
binder="mouse-human chimeric antibody 066-4.26.14-chAb (antibody, human IgG1, kappa, V domains shown) VH: EVKLVESGGGLVKPGGSLKLSCAASGFTFRSYAMSWVRQTPEKRLEWVASISTTSNTYYPDSVKGRFTTSRDNARNIVYLQMSSLRSDDTAMYYCGRGVITNQAWFAYWGQGTLVTVSA VL: DIVLTQSPATLSVTPGDSVSLSCRASQSISNNLHWYQQKSHESPRLLIKYASQSISGIPSRFSGSGSGTDFTLSVNNVGTEDFGMYFCQQSNSWPLTFGAGTKLELKR" numericreadout=1.32

Let us examine a further case.
Ask: For the binder shown here, 066-4.26.14H2L2 (antibody, V domains shown) VH: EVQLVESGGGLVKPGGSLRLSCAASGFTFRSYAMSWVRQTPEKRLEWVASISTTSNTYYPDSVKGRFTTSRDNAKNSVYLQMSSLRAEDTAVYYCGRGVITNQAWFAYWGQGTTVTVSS VL: DIVLTQSPATLSVSPGERATLSCRASQSISNNLHWYQQKPGQAPRLLIKYASQSISGIPARFSGSGSGTDFTLTISSLQSEDFAVYFCQQSNSWPLTFGGGTKVEIK , give the reported relative value of LDH release (SHSY5Y cells with Aβ; hIgG = 1.00).
Reply: 1.41
